These entries and their values trace back to paper PMC5421785.

Would you mind telling me the reported IC50 of each entry?
Target: HLA-DRB1*01:01 (Homo sapiens, UniProt P01903+P01911, A100R/D57E/F55L/F60I/F76Y/I96L/L162R/M171V/P40L/Q125E/R42F/V115G/Y59C)
Construct: EBV transformed homozygous cell lines were used as sources of MHC molecules; endogenous in cells; host or cells: EBV transformed homozygous cell lines
Assay: HLA class II peptide binding, inhibition of radiolabeled peptide binding to purified MHC
Conditions: citrullinated 15-mer (X); purified MHC, inhibition of radiolabeled peptide binding; dash = IC50 >40,000 nM; read-out: DRB1*01:01 binding capacity, Cit peptide (IC50 nM)
Square brackets hold non-standard residues; d marks the D form. Peptide text beside a SMILES is read from it. Cit = NC(=O)NCCC[C@H](N)C(=O)O
Answers are plain numbers, in nM.

CC(C)C[C@H](NC(=O)[C@H](CC(C)C)NC(=O)[C@H](CCCNC(=N)N)NC(=O)[C@@H](NC(=O)CNC(=O)[C@@H]1CCCN1C(=O)[C@@H](NC(=O)[C@H](CO)NC(=O)[C@H](CO)NC(=O)[C@H](CCCNC(N)=O)NC(=O)[C@H](CC(C)C)NC(=O)[C@H](CCCNC(=N)N)NC(=O)[C@@H](NC(=O)[C@H](C)NC(=O)[C@@H](N)CO)C(C)C)C(C)C)C(C)C)C(=O)O [SAVRLXSSVPGVRLL] (H-SAVRL[Cit]SSVPGVRLL-OH): 0.7

// query Can you look up the measured IC50 of CSCC[C@H](NC(=O)[C@H](CCC(=O)O)NC(=O)[C@H](CCC(=O)O)NC(=O)[C@H](CCC(N)=O)NC(=O)[C@H](CC(C)C)NC(=O)[C@H](CCCCN)NC(=O)[C@H](CCC(=O)O)NC(=O)[C@@H](N)CCCNC(=N)N)C(=O)N[C@@H](CC(C)C)C(=O)N[C@@H](CCC(N)=O)C(=O)N[C@@H](CCCNC(N)=O)C(=O)N[C@@H](CCC(=O)O)C(=O)N[C@@H](CCC(=O)O)C(=O)N[C@@H](C)C(=O)N[C@@H](CCC(=O)O)C(=O)O [REKLQEEMLQXEEAE] (H-REKLQEEMLQ[Cit]EEAE-OH) for me?
// result 13200

====

Would you mind telling me the reported log10 IC50 of each entry?
Molecular target: HLA-DRB1*04:01 (Homo sapiens, UniProt P01903+P01911, A100K/A169T/F76Y/I96L/K127E/L162R/M171V/N62H/P40V/Q125Y/R42H/S133A/S149N/S66Y/V115G/V209L/W38E)
Construct: EBV transformed homozygous cell lines were used as sources of MHC molecules; endogenous in cells; host or cells: EBV transformed homozygous cell lines
Assay: HLA class II peptide binding, inhibition of radiolabeled peptide binding to purified MHC
Details: citrullinated 15-mer (X); purified MHC, inhibition of radiolabeled peptide binding; dash = IC50 >40,000 nM; read-out: DRB1*04:01 binding capacity, Cit peptide (IC50 nM)
Square brackets hold non-standard residues; d marks the D form. Peptide text beside a SMILES is read from it. Cit = NC(=O)NCCC[C@H](N)C(=O)O
// units: nM (pre-log); metric: IC50; scale: log10

Some solved entries appear below for comparison.
CC(C)C[C@H](NC(=O)[C@H](CC(C)C)NC(=O)[C@H](CCCNC(N)=O)NC(=O)[C@@H](NC(=O)CNC(=O)[C@@H]1CCCN1C(=O)[C@@H](NC(=O)[C@H](CO)NC(=O)[C@H](CO)NC(=O)[C@@H](N)CCCNC(=N)N)C(C)C)C(C)C)C(=O)N[C@@H](CCC(N)=O)C(=O)N[C@@H](CC(=O)O)C(=O)N[C@@H](CO)C(=O)N[C@H](C(=O)N[C@@H](CC(=O)O)C(=O)O)C(C)C [RSSVPGVXLLQDSVD] (H-RSSVPGV[Cit]LLQDSVD-OH): 3.95
CC(C)C[C@H](NC(=O)[C@H](CCC(N)=O)NC(=O)[C@H](CC(=O)O)NC(=O)[C@@H](NC(=O)[C@H](CCC(N)=O)NC(=O)[C@H](CCCNC(N)=O)NC(=O)[C@H](CCCNC(=N)N)NC(=O)[C@H](CC(C)C)NC(=O)[C@@H](N)CCC(=O)O)C(C)C)C(=O)N[C@H](C(=O)N[C@@H](CC(N)=O)C(=O)N[C@@H](CC(=O)O)C(=O)N[C@@H](CCCCN)C(=O)N[C@@H](C)C(=O)N[C@@H](CCCNC(=N)N)C(=O)O)[C@@H](C)O [ELRXQVDQLTNDKAR] (H-ELR[Cit]QVDQLTNDKAR-OH): 4.04
CC(C)C[C@H](NC(=O)[C@H](CC(N)=O)NC(=O)[C@H](CCCCN)NC(=O)[C@H](C)NC(=O)[C@H](C)NC(=O)[C@@H](NC(=O)[C@H](CO)NC(=O)[C@H](CCC(=O)O)NC(=O)[C@H](Cc1ccc(O)cc1)NC(=O)[C@H](CCC(N)=O)NC(=O)[C@H](CCC(N)=O)NC(=O)[C@H](CCCNC(N)=O)NC(=O)[C@@H](NC(=O)[C@@H](N)CC(=O)O)C(C)C)C(C)C)C(=O)N[C@@H](CCC(N)=O)C(=O)O [DVXQQYESVAAKNLQ] (H-DV[Cit]QQYESVAAKNLQ-OH): 3.89

Below are 4 compounds. Give each one its log10 IC50.
1. CSCC[C@H](NC(=O)[C@H](CCCNC(=N)N)NC(=O)[C@H](CCCNC(N)=O)NC(=O)[C@H](Cc1ccc(O)cc1)NC(=O)[C@H](CO)NC(=O)[C@H](CO)NC(=O)[C@H](CO)NC(=O)[C@H](CO)NC(=O)[C@@H](NC(=O)[C@H](CO)NC(=O)[C@H](CCCNC(=N)N)NC(=O)[C@@H](NC(=O)[C@H](CO)NC(=O)[C@@H](N)CCSC)[C@@H](C)O)C(C)C)C(=O)N[C@@H](Cc1ccccc1)C(=O)O [MSTRSVSSSSYXRMF] (H-MSTRSVSSSSY[Cit]RMF-OH)
2. CC[C@H](C)[C@H](NC(=O)[C@H](C)NC(=O)[C@H](CC(=O)O)NC(=O)[C@H](C)NC(=O)[C@H](CC(C)C)NC(=O)[C@H](CO)NC(=O)[C@@H](N)Cc1ccccc1)C(=O)N[C@@H](CC(N)=O)C(=O)N[C@H](C(=O)N[C@@H](CCC(=O)O)C(=O)N[C@@H](Cc1ccccc1)C(=O)N[C@@H](CCCCN)C(=O)N[C@@H](CC(N)=O)C(=O)N[C@H](C(=O)N[C@@H](CCCNC(N)=O)C(=O)O)[C@@H](C)O)[C@@H](C)O [FSLADAINTEFKNTX] (H-FSLADAINTEFKNT[Cit]-OH)
3. CC(C)C[C@H](NC(=O)[C@H](CCCNC(=N)N)NC(=O)[C@H](C)N)C(=O)N[C@@H](CC(=O)O)C(=O)N[C@@H](CC(C)C)C(=O)N[C@@H](CCC(=O)O)C(=O)N[C@@H](CCCNC(N)=O)C(=O)N[C@@H](CCCCN)C(=O)N[C@H](C(=O)N[C@@H](CCC(=O)O)C(=O)N[C@@H](CO)C(=O)N[C@@H](CC(C)C)C(=O)N[C@@H](CCC(N)=O)C(=O)N[C@@H](CCC(=O)O)C(=O)N[C@@H](CCC(=O)O)C(=O)O)C(C)C [ARLDLEXKVESLQEE] (H-ARLDLE[Cit]KVESLQEE-OH)
4. CSCC[C@H](NC(=O)[C@H](CCCNC(=N)N)NC(=O)[C@H](CCCNC(=N)N)NC(=O)[C@@H](N)Cc1ccc(O)cc1)C(=O)N[C@@H](Cc1ccccc1)C(=O)NCC(=O)NCC(=O)N1CCC[C@H]1C(=O)NCC(=O)N[C@H](C(=O)N[C@@H](C)C(=O)N[C@@H](CO)C(=O)N[C@@H](CCCNC(N)=O)C(=O)N1CCC[C@H]1C(=O)N[C@@H](CO)C(=O)O)[C@@H](C)O [YRRMFGGPGTASXPS] (H-YRRMFGGPGTAS[Cit]PS-OH)

// result
1. 2.99
2. 4.35
3. 4.08
4. 3.84
